Property: Enzyme Activity Endpoint Assay (purified): Fc; scope: individual proteins
measurement_target: pooled human IgG
reported_property: Enzyme Activity Endpoint Assay (purified): Fc (ng/µL)

- protein: "PRT-77 (protein) MANQEIRYSEVTPYHVTSVWTKGVTPPTNFTQGEDVFHAPYVANQGWYDITKTFNGKDNLLCGAATAGNMLHWWFDQNKEEIERYLKKHPEKQKIMFGDQELLDVRKVINTKDDQKNSELFNYFRDKAFPGLSARRLGVMPDLVLDMFINGYYLNVGKTQTTDVNRTYQEKDKRGGIFDAVFTRGDQSKLLTSRHDFKEKNLKEISDLIKQELTEGKALGLSHTYANVRINHVINLWGADFDSNGNLEAIYVTDSDSNASIGMKKYFVGVNSAGKVAISAKEIEEDNIGAQVLGLFTLSTGQDIWNQTN"
  result_unit: "ng/µL"
  observed_value: 104
- protein: "PRT-242 (protein) MVTSVWTKGVTPPANFTQGEDVFHAPYVANQGWYDITKTFNGKDDLLCGAATAGNMLHWWFDQNKDQIKRYLEEHPEKQKINFNGEQMFDVKEAIDTKNHQLDSKLFDYFKEKAFPNLSTKHLGVFPDHVIDMFINGYRLSLLNHGPTPVKEGSKDPRGGIFDAVFTRGDQSKLLTSRHDFKEKNLKEISDLIKKELTEGKALGLSHTYANVRINHVINLWGADFDSNGNLKAIYVTDSDSNPSIGMKKYFVGVNSSGKVAISAKEIKEDNIGAQVLGLFTLSTGQDSWNQTN"
  result_unit: "ng/µL"
  observed_value: 418
- protein: "PRT-59 (protein) MANQEIRYSEVTPYHVTSVWTKGVTPPANFTQGEDVFHAPYVANQGWYDITKTFNGKDDLLCGAATAGNMLHWWFDQNKDQIKRYLEEHPEKQKINFNGEQMFDVKEAIDTKNHQLDSKLFEYFKEKAFPYLSTKHLGVFPDHVIDMFINGYRLSLTNHGPTPVKEGSKDPRGGFFDAVFTRGDQSKLLTSRHDFKEKNLKEISDLIKKELTEGKALGLSHTYANVRINHVINLWGADFDSNGNLKAIYVTDSDSNASIGMKKYFVGVNSAGKVAISAKEIKEDNIGAQVLGLFTLSTGQDSWNQTN"
  result_unit: "ng/µL"
  observed_value: 70
- protein: "PRT-137 (protein) MRNATEAYAKEVPHQITSVWTKGVTPLTPEQFRYNNEDVIHAPYLAHQGWYDITKAFDGKDNLLCGAATAGNMLHWWFDQNKTEIEAYLSKHPEKQKIIFNNQELFDLKAAIDTKDSQTNSQLFNYFRDKAFPNLSARQLGVMPDLVLDMFINGYYLNVFKTQSTDVNRPYQDKDKRGGIFDAVFTRGDQTTLLTARHDLKNKGLNDISTIIKQELTEGRALALSHTYANVSISHVINLWGADFNAEGNLEAIYVTDSDANASIGMKKYFVGINAHGKVAISAKKIEGENIGAQVLGLFTLSSGKDIWQKLS"
  result_unit: "ng/µL"
  observed_value: 198

The reported measurements were obtained from patent US20250027068.
